target: 5-HT2A (h) (Homo sapiens, UniProt P28223)
Sequence (P28223 whole entry, looked up): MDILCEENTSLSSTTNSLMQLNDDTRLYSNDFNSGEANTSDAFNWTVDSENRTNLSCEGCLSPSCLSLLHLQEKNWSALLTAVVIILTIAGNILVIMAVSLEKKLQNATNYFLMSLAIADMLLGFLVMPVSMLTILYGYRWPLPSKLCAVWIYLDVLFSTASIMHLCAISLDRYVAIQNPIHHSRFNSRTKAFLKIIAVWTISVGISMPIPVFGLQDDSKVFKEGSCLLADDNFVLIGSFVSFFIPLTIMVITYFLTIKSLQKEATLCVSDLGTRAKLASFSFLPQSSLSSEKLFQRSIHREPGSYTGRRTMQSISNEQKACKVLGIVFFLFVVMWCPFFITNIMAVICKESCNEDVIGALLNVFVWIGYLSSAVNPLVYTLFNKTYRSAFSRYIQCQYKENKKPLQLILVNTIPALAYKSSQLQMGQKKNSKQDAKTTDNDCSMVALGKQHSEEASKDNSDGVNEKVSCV
reported.metric: IC50 (nM)
Value expressed in nM; do not type the unit.

-- ask Please look at COCc1cc(CCN)c(OC)cc1CC(C)C and tell me its recorded IC50 on 5-HT2A (h) (Homo sapiens, UniProt P28223).
-- reply 57

----------
biological target: 5-HT1A (h) (Homo sapiens); construct: expressed in transfected cells; host or cells: HEK-293 cells; test: Radioligand binding 5-HT1A (h) (agonist radioligand), [^3H]8-OH-DPAT, HEK-293 cells
Sequence (P08908 whole entry): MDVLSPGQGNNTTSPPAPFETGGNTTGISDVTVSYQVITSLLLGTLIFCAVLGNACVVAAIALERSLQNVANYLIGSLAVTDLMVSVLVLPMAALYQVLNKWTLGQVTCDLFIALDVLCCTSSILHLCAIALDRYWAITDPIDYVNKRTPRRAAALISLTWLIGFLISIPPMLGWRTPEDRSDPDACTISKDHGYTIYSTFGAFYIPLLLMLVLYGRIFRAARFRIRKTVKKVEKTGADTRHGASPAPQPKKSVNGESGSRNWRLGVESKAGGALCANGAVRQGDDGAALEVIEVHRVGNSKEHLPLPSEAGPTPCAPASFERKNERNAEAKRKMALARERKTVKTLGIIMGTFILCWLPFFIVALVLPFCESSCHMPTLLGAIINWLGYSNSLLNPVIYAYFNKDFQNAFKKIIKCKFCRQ
reported.metric: Mean Percent Inhibition of Control Specific Binding (%)
Value expressed in %; do not type the unit.

Please review the entries below; each comes with its answer.
{"molecule": "COCc1cc(CCN)c(OC)cc1CC(C)C [Compound 2CiBu-5MM]", "units.label": "%", "value.measured": 76.5}
{"molecule": "COCc1cc(CCN)c(OC)cc1Br [Compound 2CB-5MM]", "units.label": "%", "value.measured": 95.1}
{"molecule": "COCc1cc(CCN)c(O)cc1CC(C)C [2CiBu-2OH-5MM]", "units.label": "%", "value.measured": 34.8}

Attention now turns to another entry.
-- ask Please indicate Mean Percent Inhibition of Control Specific Binding recorded for COCCc1cc(CCN)c(OC)cc1Br [Compound 2CB-5ME, reference compound]
-- reply 98.2
